- Test system: HCT-15 colon
- EXPERIMENT_SUMMARY: NCI-60 one-dose screen, 48 h
- MEASUREMENT_CONDITIONS: 10 µM unless noted
About 83,000 compounds went through this panel and 20% of them were active in at least one assay; those are over-represented in the sample as a whole. Active and inactive are the calls of the source. How the source made its calls: active means growth percent below 10; inactive means the rest.
Hi there, use one of these labels in your reply, thanks! active, inactive

Before answering, review these 5 worked examples.
| COMPOUND | CATEGORY |
| --- | --- |
| CCN1CCN(Cc2ccc(NC(=O)c3cccc(C#Cc4cccc5[nH]nc(N)c45)c3)cc2C(F)(F)F)CC1 | active |
| Nc1c(C(=O)Nc2cccc3ccccc23)sc2nc3c(cc12)CCCCC3 | inactive |
| COc1cc(/C=C/C(=O)/C=C/c2cc3ccc(Cl)cc3n(Cc3ccccc3)c2=O)ccc1O | active |
| Cc1cc(O)cc(O)c1N=NC1=NCCS1 | inactive |
| Cc1ccc(SC2c3ccc(C)cc3Oc3nc(N)c(C#N)c(N)c32)cc1 (centres undefined) | inactive |

Now look at this one.
Query block: Dear colleague, could you share the recorded outcome for `CCOC(=O)c1c(C)nc2c(c1N)CC(=O)N2CCc1ccccc1` when you have a moment?
Result block: inactive

###

- Test system: SNB-19 CNS
- EXPERIMENT_SUMMARY: NCI-60 one-dose screen, 48 h (100 = growth as untreated, 0 = no growth, -100 = all killed)
- MEASUREMENT_CONDITIONS: 10 µM unless noted
The panel holds about 83,000 compounds, 20% with a hit somewhere; the sample as a whole holds those more often. Activity calls are given as the source filed them. How the source made its calls: active means growth percent below 10; inactive means the rest.
This listing pairs molecules with measured growth.

Illustrative cases are given below, each with its answer.
| MOLECULE | growth |
| --- | --- |
| N#CC1(C#N)C2=C(CCCC2)NC(c2c(F)cccc2Cl)C1(C#N)C#N (stereo not given) | 69.2% (inactive) |
| Nc1c(C(=O)Nc2ccccn2)sc2nc3c(cc12)CCCCCC3 | 22.3% (inactive) |
| C/C(=N/Nc1nc2ccccc2n1C)c1ccccn1 | 15.2% (inactive) |

Bench note, SNB-19 CNS: `COc1cc(/C=C/C(=O)c2cccs2)ccc1OCc1ccc(Cl)nc1` , growth reads 66.6% (inactive)

// assay SNB-19 CNS, entry `COc1ccc(-c2cc(-c3nnc(SCC(=O)Nc4ccc(C(C)=O)cc4)o3)c3ccccc3n2)cc1` , growth value = 13.8% (inactive)

So the reported growth for `COc1ccc(/C=C/C(=O)c2ccc(NC(=O)CSc3nnc(-c4ccc(OC)c(OC)c4)n3-c3ccccc3)cc2)cc1` , on SNB-19 CNS, turned out to be 60.5% (inactive)

The reported SNB-19 CNS growth of `CNc1cccc2c1C(=O)c1cccc(N)c1C2=O` is 84.2% (inactive)

I looked up CCOc1ccc(C2N(c3cc(OC)c(OC)c(OC)c3)C(=O)C2(F)F)cc1 (stereo not given) and its growth for SNB-19 CNS was 54.1% (inactive)

The molecule `COCCc1n(Cc2ccc3ccccc3c2)c2ccccc2[n+]1Cc1ccc2ccccc2c1` on SNB-19 CNS: growth was -73.8% (active)

Result for O=CN1N=C(c2ccc(Cl)cc2)CC1c1cccc(Nc2ccnc3cc(C(F)(F)F)ccc23)c1 (stereo not given) , tested on SNB-19 CNS, growth: 70.6% (inactive)

###

- System: MDA-MB-231 breast
- EXPERIMENT_SUMMARY: NCI-60 one-dose screen, 48 h
- MEASUREMENT_CONDITIONS: 10 µM unless noted
- Method: Cells are grown in 96 well plates and exposed to the test compound for 48 hours. Compounds are tested at a single concentration, which is 10^-5 M for most compounds. The reported endpoint is percent growth (GI% or GIPRCNT), where numbers from 0 - 100% represent growth inhibition, and numbers from -100% - 0 represent cell death. For example, a value of 40 represents 60% growth inhibition. A value of 0 means no net growth occurred over the course of the experiment. […]
This is part of a sample that, as a whole, favours compounds with a hit. Of some 83,000 tested, about 20% had one in any assay. Active and inactive are the calls of the source. The calls were made as follows: active = growth percent below 10; inactive = the rest.
Return exactly one item of active, inactive

Take a look at these entries with their results.
| COMPOUND | ASSAY_TARGET | CATEGORY |
| --- | --- | --- |
| Cc1cc(C)c2nc(Nc3nc(C)c(C)c(=O)[nH]3)nc(C)c2c1 | MDA-MB-231 breast | inactive |
| c1cc(CNC23CC4CC(CC(C4)C2)C3)cc(C[N+](Cc2cccc(CNC34CC5CC(CC(C5)C3)C4)c2)(Cc2cccc(CNC34CC5CC(CC(C5)C3)C4)c2)Cc2cccc(CNC34CC5CC(CC(C5)C3)C4)c2)c1 (stereo not drawn) | MDA-MB-231 breast | inactive |
| Cc1cc(C)c(NC(=O)c2sc3nc4c(cc3c2N)CCCCCC4)c(C)c1 | MDA-MB-231 breast | inactive |
| C#C[C@@]1(O)[C@@H](CO)O[C@@H](n2cc(Br)c3c(N)ncnc32)[C@@H]1O | MDA-MB-231 breast | active |
| Cc1ccc(CS/C(=C\c2ccc([N+](=O)[O-])cc2)C(=O)c2ccc(F)cc2)cc1 | MDA-MB-231 breast | inactive |

Query block: Dear colleague, could you share the recorded outcome for N#CC1(C#N)C2=C(CCCC2)NC(c2c(F)cccc2Cl)C1(C#N)C#N (stereo not drawn) when you have a moment?
Result block: inactive

Query block: What outcome does the record of this test show for `Cc1cccc2nc3c(n12)C(=O)C(=O)c1ccccc1-3` ?
Result block: inactive

Query block: Tell me the recorded outcome of this test for `CC(C)C[C@H](C(=O)O)N(C)C(=O)[C@@H]1CCCN1C(=O)[C@H](C)OC(=O)[C@H](CCC(N)=O)NC(=O)[C@@H]1CCC(=O)N1` .
Result block: inactive

Query block: Write down the call the test reported for this compound. Item: `Oc1ccc(CNNc2ccnc3c(O)cccc23)c2cccnc12`
Result block: inactive

Query block: Outcome logged for `COc1cc(C)ccc1Oc1nc(Nc2ccc(N3CCOCC3)cc2)ncc1N=Cc1cc(C(F)(F)F)cc(C(F)(F)F)c1` in this assay:
Result block: inactive

Query block: Hi, do you know how `O=C(O)c1cc(N=Nc2ccc(-c3ccc(N=Nc4c(S(=O)(=O)O)cc5ccc(Nc6ccccc6)cc5c4O)cc3)cc2)ccc1O` came out in this test?
Result block: inactive

Query block: Given `Cc1ccc(C(=O)O)o1` , state the outcome it received in this test.
Result block: inactive

Query block: # lookup: test call for `COc1ccccc1N1CCN(CCCOc2ccc(C(=O)/C=C3/C(=O)Nc4ccccc43)cc2)CC1`
Result block: inactive

###

The following molecules are shown together with reported growth values.
- Tested on: MCF7 breast
- EXPERIMENT_SUMMARY: NCI-60 one-dose screen, 48 h (100 = growth as untreated, 0 = no growth, -100 = all killed)
- MEASUREMENT_CONDITIONS: 10 µM unless noted
Compounds without any hit were thinned out: in the full panel of roughly 83,000, 20% have a hit.
Could you give me the number in %? Just the number is fine.

| MOLECULE | UNIT_OF_MEASUREMENT | growth |
| --- | --- | --- |
| CN(CCC#N)C(=O)Nc1ccccc1 | % | 100 |
| CNc1cccc2c1C(=O)c1cccc(N)c1C2=O | % | 25 |
| N#Cc1c(-c2ccc(F)cc2)nc(N/N=C/c2c[nH]c3ccccc23)nc1N1CCOCC1 | % | 51.5 |
| O=C1NC(c2ccc(F)cc2)N=C2C(c3ccccc3)=NOC12 (stereo not given) | % | 101 |
| COc1cc([C@H](C)c2ccc3ccccc3c2)cc(OC)c1OC | % | 14.8 |
| COC(=O)c1oc2c(C(=O)/C=C/c3ccc(OC)cc3)c(OCCCN3CCCCC3)ccc2c1C | % | 6.82 |
| O=C1Nc2ccc(Cl)cc2/C1=N/c1nc(-c2ccc(Cl)cc2)cs1 | % | 5.81 |
| COc1ccc(-c2cs/c(=N\N=C\c3ccc(O)cc3O)n2/N=C/c2ccc(O)cc2O)cc1 | % | -11.5 |

Lookup result for `Nc1ccc(C(=O)Nc2cccc(C(=O)Nc3ccc4c(O)c(N=Nc5ccc(N=Nc6ccc(S(=O)(=O)O)cc6)cc5)c(S(=O)(=O)O)cc4c3)c2)cc1` ; measured growth: 94.8

Looking up `C#C[C@@]1(O)[C@@H](CO)O[C@@H](n2cc(-c3ccco3)c3c(N)ncnc32)[C@@H]1O` , I found its growth recorded as 13.9

###

Below, each of the molecules is paired with its reported growth value.
- Tested on: RPMI-8226 leukemia
- EXPERIMENT_SUMMARY: NCI-60 one-dose screen, 48 h (100 = growth as untreated, 0 = no growth, -100 = all killed)
- MEASUREMENT_CONDITIONS: 10 µM unless noted
Compounds without any hit were thinned out: in the full panel of roughly 83,000, 20% have a hit.
Quick note: give the figure in %, leave out the unit.

| MOLECULE | growth [%] |
| --- | --- |
| Nc1c(C(=O)Nc2ccccc2Cl)sc2nc3c(cc12)CN(Cc1ccccc1)CC3 | 103 |
| CCOC(=O)c1ccc(Nc2ncnc3ccc(NC(=O)c4ccccc4)cc23)cc1 | 69.2 |
| COc1ccc(-c2[nH]c3ccccc3c2C=C(C#N)C#N)cc1 | -43.8 |
| COc1ccc(NC(=O)Nc2ccc(Nc3nc(C)cc(Nc4ccc(C)cc4)n3)cc2)cc1 | -45.9 |
| COc1cc(-c2csc(NC(=O)Nc3ccc(Cl)cc3)n2)cc(OC)c1OC | 8.27 |
| Cc1c(Cl)cccc1NC(=O)c1sc2nc3c(cc2c1N)CCCCC3 | 22.2 |
| Cc1[nH]c(N=Nc2ccccc2)nc1N=Nc1ccccc1 | -2.66 |
| CCc1n(Cc2ccc3ccccc3c2)c2ccccc2[n+]1Cc1ccc2ccccc2c1 | 13.5 |

Lab book: growth of `Cc1cc(Nc2nc(SCc3ccc(C(=O)Nc4ccc(F)cc4N)cc3)nn3cccc23)n[nH]1` noted as 13.1

Recorded result, CCOC(=O)C1=C(C)n2nc(CC#N)c(C#N)c2NC1c1ccc(Cl)cc1 (stereo not drawn) , growth: 101

Please fill in: growth reported for `C=C(C)[C@@H]1CC[C@]2(C(=O)OCCOCCOCC[P+](c3ccccc3)(c3ccccc3)c3ccccc3)CC[C@]3(C)[C@H](CC[C@@H]4[C@@]5(C)CC[C@H](OC(C)=O)C(C)(C)[C@@H]5CC[C@]43C)[C@@H]12` = -63.9

Entry `Cc1nccc2c3ccc(OCc4cn(-c5ccccc5)nn4)cc3n(CCCc3ccccc3)c12` , growth reported as 31.6

Lab note: `N#Cc1ccc(Oc2ccc3ccc(=O)oc3c2)cc1` gave growth of 81.5

Data point: `COc1ccc(NC(=O)c2sc3nc(C)c(C(C)=O)cc3c2N)cc1` ; growth = 85.6

Reported growth ( `c1ccc2nc(N3CCOCC3)c(N3CCCCC3)nc2c1` ) = 96.9

Value of growth reported for the molecule `COc1cc2nc3c(=O)n(-c4ccc(C#N)cc4)cnn3c(=O)c2cc1OC` is 115
